test system: 6-phosphofructokinase (Trypanosoma brucei); assay: Confirmatory Assay to Find Inhibitors of T. brucei phosphofructokinase: High ATP; details: T. brucei PFK, Kinase-Glo luminescence; series mostly up to 57.5 µM
Inconclusive results are not listed. The source made the active and inactive calls. Calls follow the shape of the dose curve; as a rule, active = well fitted inhibition curve with a large enough effect; inconclusive = small, poorly fitted or top-dose-only effect; inactive = flat fitted curve, though single readings scatter.
ATTRIBUTE_MEASURED: Potency

O=C(Cc1ccc(Cl)c(Cl)c1)Nc1ccc(S(=O)(=O)Nc2ccon2)cc1 326 nM (active)
O=C(Cc1ccc(Cl)c(Cl)c1)Nc1ccc(S(=O)(=O)Nc2ccc(C(=O)O)cc2)cc1 919 nM (active)
Cc1cc(NC(=O)c2ccc(NC(=O)Cc3ccc(Cl)c(Cl)c3)cc2)no1 inactive
Cc1cc(NS(=O)(=O)c2ccc(NC(=O)Cc3ccc(Cl)cc3)cc2)no1 2910 nM (active)
COc1ccc(CC(=O)Nc2ccc(S(=O)(=O)Nc3cc(C)on3)cc2)cc1OC inactive
Cc1cc(NS(=O)(=O)c2ccc(NC(=O)Cc3ccc(C)c(C)c3)cc2)no1 18300 nM (active)
O=C(Cc1ccc(Cl)c(Cl)c1)Nc1ccc(S(=O)(=O)Nc2ccccc2)cc1 13000 nM (active)
Cc1cc(NS(=O)(=O)c2cccc(NC(=O)Cc3ccc(Cl)c(Cl)c3)c2)no1 18300 nM (active)

Quick one: give me Potency for each item below, same order please.
1. O=C(Cc1ccc(Cl)c(Cl)c1)Nc1ccc(S(=O)(=O)Nc2cncnc2)cc1
2. Cc1cc(NS(=O)(=O)c2ccc(N(C)C(=O)Cc3ccc(Cl)c(Cl)c3)cc2)no1
3. Cc1cc(N[S+](=O)([O-])c2ccc(NC(=O)Cc3ccc(Cl)nc3)cc2)no1

# output
["1300 nM (active)", "1300 nM (active)", "18300 nM (active)"]

Quick one: give me Potency for each item below, same order please.
1. Cc1cc(NS(=O)(=O)c2ccc(NCCc3ccc(Cl)c(Cl)c3)cc2)no1
2. Cc1cc(NC(=O)c2csc(NC(=O)Cc3ccc(Cl)c(Cl)c3)n2)no1
3. O=C(Cc1ccc(Cl)c(Cl)c1)Nc1ccc(S(=O)(=O)Nc2cccc(O)c2)cc1
4. Cc1cc(NS(=O)(=O)c2ccc(NC(=O)Cc3ccc(Cl)c(Cl)c3)cc2)on1
5. Cc1cc(NS(=O)(=O)c2ccc(NC(=O)Cc3ccc4ccccc4c3)cc2)no1
6. O=C(Cc1ccc(Cl)c(Cl)c1)Nc1ccc(S(=O)(=O)O)cc1

# output
["16300 nM (active)", "inactive", "2910 nM (active)", "517 nM (active)", "5800 nM (active)", "1030 nM (active)"]
